- System: COLO201
- RUN_DESCRIPTION: Biomarker study proliferation (CellTiter-Glo)
- Format: cell-based
- COND: Homo sapiens, COLO 201, 168 h, read-out: Anti-proliferation effect IC50
VALUE_TYPE: IC50 (µM)
Unit µM implied. Number only.

[ask] # query: IC50 of entry `Cc1cc(NC2CCN(C(=O)O[C@H]3CCN(C(=O)/C=C/CN(C)C)C3)CC2)n2ncc(C(C)C)c2n1`
[reply] 0.123

---

- Tested on: MCF7
- RUN_DESCRIPTION: Biomarker study proliferation (CellTiter-Glo)
- Assay type: cell-based
- COND: Homo sapiens, MCF7, 168 h, read-out: Anti-proliferation effect IC50
VALUE_TYPE: IC50
Give me the value, and tack the unit on after it.

[ask] # query: IC50 of entry `Cc1cc(NC2CCN(C(=O)O[C@H]3CCN(C(=O)/C=C/CN(C)C)C3)CC2)n2ncc(C(C)C)c2n1`
[reply] 155 nM

---

- Test system: NCIH727
- RUN_DESCRIPTION: Biomarker study proliferation (CellTiter-Glo)
- Type: cell-based
- COND: Homo sapiens, NCI-H727, 168 h, read-out: Anti-proliferation effect IC50
VALUE_TYPE: pIC50
pIC50 field: float, defined as -log10 of concentration (mol/L).

[ask] # query: pIC50 of entry `Cc1cc(NC2CCN(C(=O)O[C@H]3CCN(C(=O)/C=C/CN(C)C)C3)CC2)n2ncc(C(C)C)c2n1`
[reply] 6.93

---

- System: HS294T
- RUN_DESCRIPTION: Biomarker study proliferation (CellTiter-Glo)
- Format: cell-based
- COND: Homo sapiens, Hs 294T, 168 h, read-out: Anti-proliferation effect IC50
VALUE_TYPE: IC50

[ask] # query: IC50 of entry `Cc1cc(NC2CCN(C(=O)O[C@H]3CCN(C(=O)/C=C/CN(C)C)C3)CC2)n2ncc(C(C)C)c2n1`
[reply] 20 nM

---

- Tested on: M14
- RUN_DESCRIPTION: Biomarker study proliferation (CellTiter-Glo)
- Format: cell-based
- COND: Homo sapiens, M14, 168 h, read-out: Anti-proliferation effect IC50
VALUE_TYPE: pIC50
pIC50 field: float, defined as -log10 of concentration (mol/L).

[ask] # query: pIC50 of entry `Cc1cc(NC2CCN(C(=O)O[C@H]3CCN(C(=O)/C=C/CN(C)C)C3)CC2)n2ncc(C(C)C)c2n1`
[reply] 7.49

---

- Test system: HLE
- RUN_DESCRIPTION: Biomarker study proliferation (CellTiter-Glo)
- Assay type: cell-based
- COND: Homo sapiens, 168 h, read-out: Anti-proliferation effect IC50
- Method: Cancer cell lines are profiled to evaluate the anti-proliferative activity of a test compound in-vitro. […] After 15 minutes, luminescence is read using a plate reader. Data is analyzed in Excel and graphed in GraphPad Prism. Statistical analysis and p value is calculated using Mann-Whitney nonparameteric t tests using GraphPad Prism. […]
VALUE_TYPE: IC50
Give me the value, and tack the unit on after it.

[ask] # query: IC50 of entry Cc1cc(NC2CCN(C(=O)O[C@H]3CCN(C(=O)/C=C/CN(C)C)C3)CC2)n2ncc(C(C)C)c2n1 [Example 1]
[reply] 0.03 µM

---

- ASSAYED_TARGET: CDK12/CycK (Homo sapiens, UniProt Q9NYV4)
- Sequence (Q9NYV4 whole entry): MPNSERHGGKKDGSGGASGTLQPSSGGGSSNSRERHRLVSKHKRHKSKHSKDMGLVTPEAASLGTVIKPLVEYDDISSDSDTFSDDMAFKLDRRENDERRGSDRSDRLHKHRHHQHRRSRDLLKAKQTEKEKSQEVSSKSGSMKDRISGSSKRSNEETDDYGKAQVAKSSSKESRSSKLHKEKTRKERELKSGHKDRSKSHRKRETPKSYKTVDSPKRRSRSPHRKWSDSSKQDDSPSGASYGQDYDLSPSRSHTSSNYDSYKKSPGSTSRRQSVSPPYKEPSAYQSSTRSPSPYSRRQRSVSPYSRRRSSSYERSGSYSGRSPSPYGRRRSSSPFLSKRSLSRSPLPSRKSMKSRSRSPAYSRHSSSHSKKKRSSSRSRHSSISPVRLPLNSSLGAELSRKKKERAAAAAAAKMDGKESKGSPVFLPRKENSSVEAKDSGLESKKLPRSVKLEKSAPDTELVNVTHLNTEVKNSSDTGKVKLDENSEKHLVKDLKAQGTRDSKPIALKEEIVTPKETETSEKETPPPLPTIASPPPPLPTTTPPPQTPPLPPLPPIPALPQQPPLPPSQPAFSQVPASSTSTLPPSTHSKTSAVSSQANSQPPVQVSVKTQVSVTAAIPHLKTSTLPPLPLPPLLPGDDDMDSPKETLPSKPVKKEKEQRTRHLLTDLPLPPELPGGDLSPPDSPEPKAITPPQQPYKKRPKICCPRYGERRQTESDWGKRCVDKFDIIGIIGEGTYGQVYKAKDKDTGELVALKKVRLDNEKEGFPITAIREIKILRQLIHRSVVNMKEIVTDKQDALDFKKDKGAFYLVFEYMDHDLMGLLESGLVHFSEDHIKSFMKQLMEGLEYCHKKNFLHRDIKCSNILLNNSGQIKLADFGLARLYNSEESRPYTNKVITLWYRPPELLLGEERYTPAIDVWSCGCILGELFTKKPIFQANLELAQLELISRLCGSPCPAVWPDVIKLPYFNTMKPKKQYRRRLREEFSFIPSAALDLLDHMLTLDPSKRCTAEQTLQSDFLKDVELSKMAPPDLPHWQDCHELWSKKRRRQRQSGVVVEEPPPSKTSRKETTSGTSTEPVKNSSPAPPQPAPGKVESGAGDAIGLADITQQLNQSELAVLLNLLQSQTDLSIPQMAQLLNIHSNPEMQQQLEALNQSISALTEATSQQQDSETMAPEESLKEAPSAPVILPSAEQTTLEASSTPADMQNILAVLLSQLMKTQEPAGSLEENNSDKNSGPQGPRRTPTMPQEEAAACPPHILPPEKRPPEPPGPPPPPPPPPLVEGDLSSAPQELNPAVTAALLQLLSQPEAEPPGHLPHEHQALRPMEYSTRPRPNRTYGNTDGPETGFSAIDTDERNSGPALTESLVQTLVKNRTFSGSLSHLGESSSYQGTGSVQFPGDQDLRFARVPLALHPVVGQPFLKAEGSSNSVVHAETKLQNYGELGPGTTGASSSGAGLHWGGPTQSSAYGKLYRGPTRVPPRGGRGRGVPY
- Sequence (O75909 whole entry partner): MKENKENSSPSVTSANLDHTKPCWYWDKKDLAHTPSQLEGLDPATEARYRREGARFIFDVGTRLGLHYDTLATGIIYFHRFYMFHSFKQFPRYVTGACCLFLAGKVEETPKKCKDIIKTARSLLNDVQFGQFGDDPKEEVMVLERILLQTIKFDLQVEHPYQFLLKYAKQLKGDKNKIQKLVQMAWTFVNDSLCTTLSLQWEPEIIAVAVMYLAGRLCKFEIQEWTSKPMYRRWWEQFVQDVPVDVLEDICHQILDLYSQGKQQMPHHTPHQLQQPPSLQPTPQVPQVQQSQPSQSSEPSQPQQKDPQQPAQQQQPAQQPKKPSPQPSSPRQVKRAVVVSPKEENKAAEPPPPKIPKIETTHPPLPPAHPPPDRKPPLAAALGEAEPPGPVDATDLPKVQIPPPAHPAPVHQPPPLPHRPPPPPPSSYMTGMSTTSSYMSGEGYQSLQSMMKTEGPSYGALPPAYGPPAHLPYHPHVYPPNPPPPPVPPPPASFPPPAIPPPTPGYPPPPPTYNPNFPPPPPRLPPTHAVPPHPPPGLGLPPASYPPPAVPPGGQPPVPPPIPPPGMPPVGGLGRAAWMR
- RUN_DESCRIPTION: ProQinase radiometric protein kinase assay, 10 concentrations
- COND: kinase 14.7 nM, ATP 0.3 μM
- Protocol: A radiometric protein kinase assay (33PANQINASE® Activity Assay, ProQinase) is used for measuring the kinase activity of the 320 protein kinases. All kinase assays are performed in 96-well FLASHPLATES™ in a 50 μL reaction volume. The reaction cocktail is pipetted in 4 steps in the following order: All PKC assays (except the PKC-mu and the PKC-nu assay) additionally contain 1 mM CaCl2). 4 mM EDTA, 5 μg/mL Phosphatidylserine and 1 μg/mL 1,2-Dioleyl-glycerol. […]
VALUE_TYPE: IC50 (µM)
Unit µM implied. Number only.

[ask] # query: IC50 of entry `Cc1cc(NC2CCN(C(=O)O[C@H]3CCN(C(=O)/C=C/CN(C)C)C3)CC2)n2ncc(C(C)C)c2n1`
[reply] 14.8

---

- ASSAYED_TARGET: CDK7/CyclinH/Mat1 (Homo sapiens)
- RUN_DESCRIPTION: Biochemical assay for inhibition of CDK7/CyclinH/MAT1 (radiolabel filter binding)
- COND: IC50 in CDK7, without preincubation
Assignment: determine reported IC50 for the given molecules.

[ask] # query: IC50 of entry Cc1cc(NC2CCN(C(=O)O[C@@H]3CCN(C(=O)/C=C/CN(C)C)C3)CC2)n2ncc(C(C)C)c2n1 [Example 3]
[reply] 48.7 nM

[ask] # query: IC50 of entry Cc1cc(NC2CCN(C(=O)O[C@H]3CCN(C(=O)/C=C/CN(C)C)C3)CC2)n2ncc(C(C)C)c2n1 [Example 1]
[reply] 17.3 nM

---

- Test system: THP1
- RUN_DESCRIPTION: Biomarker study proliferation (CellTiter-Glo)
- Assay type: cell-based
- COND: Homo sapiens, THP-1, 168 h, read-out: Anti-proliferation effect IC50
VALUE_TYPE: IC50

[ask] # query: IC50 of entry `Cc1cc(NC2CCN(C(=O)O[C@H]3CCN(C(=O)/C=C/CN(C)C)C3)CC2)n2ncc(C(C)C)c2n1`
[reply] 42 nM

---

- Test system: OV90
- RUN_DESCRIPTION: Biomarker study proliferation (CellTiter-Glo)
- Format: cell-based
- COND: Homo sapiens, OV-90, 168 h, read-out: Anti-proliferation effect IC50
VALUE_TYPE: pIC50
pIC50 field: float, defined as -log10 of concentration (mol/L).

[ask] # query: pIC50 of entry Cc1cc(NC2CCN(C(=O)O[C@H]3CCN(C(=O)/C=C/CN(C)C)C3)CC2)n2ncc(C(C)C)c2n1 [Example 1]
[reply] 7.47

---

- ASSAYED_TARGET: CDK7/CycH/MAT1 (Homo sapiens, UniProt P50613)
- Sequence (P50613 whole entry): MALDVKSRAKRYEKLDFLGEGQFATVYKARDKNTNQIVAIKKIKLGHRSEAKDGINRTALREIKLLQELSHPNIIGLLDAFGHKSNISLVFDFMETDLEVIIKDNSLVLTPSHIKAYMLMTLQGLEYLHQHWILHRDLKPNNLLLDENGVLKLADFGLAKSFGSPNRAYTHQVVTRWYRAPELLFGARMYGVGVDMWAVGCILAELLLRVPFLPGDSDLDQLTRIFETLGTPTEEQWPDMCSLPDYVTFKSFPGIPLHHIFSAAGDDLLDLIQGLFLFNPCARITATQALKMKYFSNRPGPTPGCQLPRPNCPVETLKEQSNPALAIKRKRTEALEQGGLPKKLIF
- Sequence (P51946 whole entry partner): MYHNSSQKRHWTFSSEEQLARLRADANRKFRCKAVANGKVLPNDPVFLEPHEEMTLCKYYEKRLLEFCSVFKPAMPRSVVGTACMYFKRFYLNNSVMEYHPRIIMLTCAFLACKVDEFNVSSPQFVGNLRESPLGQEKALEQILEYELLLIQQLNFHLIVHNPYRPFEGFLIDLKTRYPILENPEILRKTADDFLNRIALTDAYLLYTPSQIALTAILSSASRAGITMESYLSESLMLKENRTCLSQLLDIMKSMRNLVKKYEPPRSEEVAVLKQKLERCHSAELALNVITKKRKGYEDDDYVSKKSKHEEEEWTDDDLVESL
- Sequence (P51948 whole entry partner): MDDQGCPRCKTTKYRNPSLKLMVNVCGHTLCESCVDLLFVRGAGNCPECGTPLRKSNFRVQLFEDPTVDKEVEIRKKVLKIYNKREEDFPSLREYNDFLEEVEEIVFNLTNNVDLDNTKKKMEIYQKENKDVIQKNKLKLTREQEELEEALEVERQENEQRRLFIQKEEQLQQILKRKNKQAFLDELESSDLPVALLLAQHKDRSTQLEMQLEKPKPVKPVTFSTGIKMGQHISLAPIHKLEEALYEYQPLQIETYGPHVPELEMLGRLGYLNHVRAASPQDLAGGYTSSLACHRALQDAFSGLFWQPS
- RUN_DESCRIPTION: ProQinase WT Profiler radiometric protein kinase assay
- COND: non standard IC50 from 4 concentrations, kinase 3.3 nM, ATP 3 μM
VALUE_TYPE: pIC50
pIC50 field: float, defined as -log10 of concentration (mol/L).

[ask] # query: pIC50 of entry Cc1cc(NC2CCN(C(=O)O[C@H]3CCN(C(=O)/C=C/CN(C)C)C3)CC2)n2ncc(C(C)C)c2n1 [Example 1]
[reply] 7.03

---

- Test system: KYSE70
- RUN_DESCRIPTION: Biomarker study proliferation (CellTiter-Glo)
- Format: cell-based
- COND: Homo sapiens, KYSE-70, 168 h, read-out: Anti-proliferation effect IC50
VALUE_TYPE: pIC50
pIC50 field: float, defined as -log10 of concentration (mol/L).

[ask] # query: pIC50 of entry Cc1cc(NC2CCN(C(=O)O[C@H]3CCN(C(=O)/C=C/CN(C)C)C3)CC2)n2ncc(C(C)C)c2n1 [Example 1]
[reply] 6.90

---

- System: MKN7
- RUN_DESCRIPTION: Biomarker study proliferation (CellTiter-Glo)
- Assay type: cell-based
- COND: Homo sapiens, MKN-7, 168 h, read-out: Anti-proliferation effect IC50
pIC50: −log10 of the molar value.
VALUE_TYPE: pIC50

[ask] # query: pIC50 of entry Cc1cc(NC2CCN(C(=O)O[C@H]3CCN(C(=O)/C=C/CN(C)C)C3)CC2)n2ncc(C(C)C)c2n1 [Example 1]
[reply] < 5.00

---

- System: SJRH30
- RUN_DESCRIPTION: Biomarker study proliferation (CellTiter-Glo)
- Assay type: cell-based
- COND: Homo sapiens, SJRH30, 168 h, read-out: Anti-proliferation effect IC50
VALUE_TYPE: IC50 (nM)
Unit nM implied. Number only.

[ask] Lab request: please report IC50 under test system SJRH30 for Cc1cc(NC2CCN(C(=O)O[C@H]3CCN(C(=O)/C=C/CN(C)C)C3)CC2)n2ncc(C(C)C)c2n1 [Example 1]
[reply] 39

---

- System: NCIH520
- RUN_DESCRIPTION: Biomarker study proliferation (CellTiter-Glo)
- Format: cell-based
- COND: Homo sapiens, NCI-H520, 168 h, read-out: Anti-proliferation effect IC50
VALUE_TYPE: pIC50
pIC50 field: float, defined as -log10 of concentration (mol/L).

[ask] # query: pIC50 of entry `Cc1cc(NC2CCN(C(=O)O[C@H]3CCN(C(=O)/C=C/CN(C)C)C3)CC2)n2ncc(C(C)C)c2n1`
[reply] 7.09

---

- ASSAYED_TARGET: CDK9/CycT1 (Homo sapiens, UniProt P50750)
- Sequence (P50750 whole entry): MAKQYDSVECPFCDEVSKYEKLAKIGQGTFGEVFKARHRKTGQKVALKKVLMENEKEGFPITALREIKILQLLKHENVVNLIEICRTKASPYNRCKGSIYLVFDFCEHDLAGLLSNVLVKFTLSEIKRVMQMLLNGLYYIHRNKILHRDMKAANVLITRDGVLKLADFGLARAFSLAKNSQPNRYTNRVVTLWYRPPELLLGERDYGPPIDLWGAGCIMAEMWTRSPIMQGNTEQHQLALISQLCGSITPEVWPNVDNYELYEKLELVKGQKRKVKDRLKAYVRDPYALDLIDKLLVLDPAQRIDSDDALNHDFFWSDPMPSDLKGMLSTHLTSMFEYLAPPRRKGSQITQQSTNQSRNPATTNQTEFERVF
- Sequence (O60563 whole entry partner): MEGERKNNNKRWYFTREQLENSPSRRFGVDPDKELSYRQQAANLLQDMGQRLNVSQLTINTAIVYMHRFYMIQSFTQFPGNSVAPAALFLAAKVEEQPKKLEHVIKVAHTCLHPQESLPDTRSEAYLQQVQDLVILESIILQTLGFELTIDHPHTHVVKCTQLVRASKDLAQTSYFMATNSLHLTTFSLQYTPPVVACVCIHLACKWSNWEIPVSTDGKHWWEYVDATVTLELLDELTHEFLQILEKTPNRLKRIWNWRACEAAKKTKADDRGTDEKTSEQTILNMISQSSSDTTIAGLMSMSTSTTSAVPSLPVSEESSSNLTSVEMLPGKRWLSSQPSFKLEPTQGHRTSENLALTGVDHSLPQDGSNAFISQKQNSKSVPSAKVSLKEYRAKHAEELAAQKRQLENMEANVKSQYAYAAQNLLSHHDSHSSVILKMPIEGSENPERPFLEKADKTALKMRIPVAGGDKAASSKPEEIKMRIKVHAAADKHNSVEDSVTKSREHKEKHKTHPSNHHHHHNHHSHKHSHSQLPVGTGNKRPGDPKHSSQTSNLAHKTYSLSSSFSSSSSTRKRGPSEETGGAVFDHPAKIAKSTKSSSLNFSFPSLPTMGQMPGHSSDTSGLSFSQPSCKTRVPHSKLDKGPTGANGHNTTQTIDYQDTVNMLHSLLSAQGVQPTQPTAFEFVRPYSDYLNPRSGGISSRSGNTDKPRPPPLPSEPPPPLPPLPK
- RUN_DESCRIPTION: ProQinase WT Profiler radiometric protein kinase assay
- COND: non standard IC50 from 4 concentrations, kinase 2.2 nM, ATP 1 μM
VALUE_TYPE: pIC50
pIC50 field: float, defined as -log10 of concentration (mol/L).

[ask] Lab request: please report pIC50 under test system CDK9/CycT1 (Homo sapiens, UniProt P50750) for `Cc1cc(NC2CCN(C(=O)O[C@H]3CCN(C(=O)/C=C/CN(C)C)C3)CC2)n2ncc(C(C)C)c2n1`
[reply] 5.20
